Molecular target: M. abscessus PPAT (Mycobacteroides abscessus, UniProt B1MDL6)
Sequence (B1MDL6 whole entry, the tested form may be a part): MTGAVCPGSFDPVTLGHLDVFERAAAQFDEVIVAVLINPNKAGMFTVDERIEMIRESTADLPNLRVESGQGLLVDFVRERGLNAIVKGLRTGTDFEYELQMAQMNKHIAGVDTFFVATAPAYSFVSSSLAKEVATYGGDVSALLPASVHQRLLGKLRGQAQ
Type: binding, Mycobacterium abscessus
Settings: Table 1; 10 μM PPAT, 5 mM compound, 5% DMSO
measurement_label: ΔΤm

Query :: Give M. abscessus PPAT (Mycobacteroides abscessus, UniProt B1MDL6) ΔΤm for Cc1ccc2oc(=O)cc(O)c2c1 [Fragment 15]
Result :: +0.5 °C

Query :: Give M. abscessus PPAT (Mycobacteroides abscessus, UniProt B1MDL6) ΔΤm for Cc1c(C(=O)O)cnn1-c1ccccc1 [Fragment 1]
Result :: +6 °C

Query :: Give M. abscessus PPAT (Mycobacteroides abscessus, UniProt B1MDL6) ΔΤm for O=C(O)c1cc2cc(F)ccc2[nH]1 [Fragment 7]
Result :: +3.5 °C

Query :: Give M. abscessus PPAT (Mycobacteroides abscessus, UniProt B1MDL6) ΔΤm for O=C(O)Cc1ccc2ccccc2c1 [Fragment 9]
Result :: +2.3 °C

Query :: Give M. abscessus PPAT (Mycobacteroides abscessus, UniProt B1MDL6) ΔΤm for O=C(O)c1ccc2cc(F)ccc2c1 [Fragment 8]
Result :: +2.9 °C

Query :: Give M. abscessus PPAT (Mycobacteroides abscessus, UniProt B1MDL6) ΔΤm for O=C(O)CCc1c[nH]c2ccccc12 [Fragment 5]
Result :: +3.5 °C

meta.source: paper PMC9197168
